B1: HEEH_KT_rd6_3632 (parent)
chain: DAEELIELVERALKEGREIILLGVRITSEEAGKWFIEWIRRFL

# Variants of: B1
# protocol: folding stability dG (cDNA display proteolysis); higher = more stable
# condition: PBS, room temperature
property name: folding stability dG (kcal/mol)
Give just the number in kcal/mol; leave the unit off.

Problem: # input variant: I20M ; wanted: its folding stability dG
Result: 3.26

Problem: Any idea what its folding stability dG is? The variant is T27P
Result: 3.18

Problem: Give the measured folding stability dG of G16I .
Result: 4.25
